Test system: Puccinia recondita tritici
ASSAY_PROTOCOL: Leaf Rust of Wheat (PUCCRT), whole-plant fungicide test
Type: in vivo
ASSAY_SETUP: Puccinia recondita, foliar, 24 h, 200 ppm on foliage, one-day protectant test, read-out: PUCCRT percent control of disease
PROPERTY_MEASURED: pest or weed control at 200 ppm

// solved cases for pest or weed control at 200 ppm follow
[[record]]
compound = "CCOC(=O)c1sc2ncnc(NC(C)c3ccc(OC)cc3)c2c1O (centres unmarked)"
tested_system = "Puccinia recondita tritici"
property_measured = "pest or weed control at 200 ppm"
observed_value = "0 to 49%"

[[record]]
compound = "COC(=O)c1ccc(CNc2ncnc3scc(Cl)c23)cc1"
tested_system = "Puccinia recondita tritici"
property_measured = "pest or weed control at 200 ppm"
observed_value = "0 to 49%"

[[record]]
compound = "CC(Nc1ncnc2scc(Cl)c12)c1cnccn1 (centres unmarked)"
tested_system = "Puccinia recondita tritici"
property_measured = "pest or weed control at 200 ppm"
observed_value = "80 to 100%"

[[record]]
compound = "CC(Nc1ncnc2scc(Cl)c12)c1ccc(NC=O)cc1 (centres unmarked)"
tested_system = "Puccinia recondita tritici"
property_measured = "pest or weed control at 200 ppm"
observed_value = "80 to 100%"


Report pest or weed control at 200 ppm for each item below.
1. CCOc1ccc(C(C)Nc2ncnc3scc(Cl)c23)cn1 (centres unmarked)
2. CCOc1csc2ncnc(N[C@@H](C)c3ccc(OC)cc3)c12
3. Clc1csc2ncnc(N3CCCC3c3cccnc3)c12 (centres unmarked)
4. COc1ccc(C(C)Nc2ncnc3scc(S(C)(=O)=O)c23)cc1 (centres unmarked)
5. CC(Nc1ncnc2scc(Cl)c12)c1ccc[nH]1 (centres unmarked)
6. CC(Nc1ncnc2scc(Cl)c12)c1ccc(OCCF)nc1 (centres unmarked)
7. Clc1csc2ncnc(NCCc3ccc(OCc4ccccc4)cc3)c12
8. CC(C)c1ccc(C(C)Nc2ncnc3scc(Cl)c23)nc1 (centres unmarked)

["80 to 100%", "50 to 79%", "50 to 79%", "0 to 49%", "50 to 79%", "80 to 100%", "80 to 100%", "80 to 100%"]

Parameter requested: pest or weed control at 200 ppm. Apply to each item below.
1. Clc1csc2ncnc(N3CCOCC3c3ccccc3)c12 (centres unmarked)
2. O=C(Oc1ccc(CCNc2ncnc3scc(Cl)c23)cc1)C1(F)C(F)(F)C(F)(F)C(F)(F)C(F)(F)C1(F)F
3. CC(Nc1ncnc2scc(Cl)c12)c1ccc(OCc2ccccc2)cn1 (centres unmarked)
4. CC(COc1ccc(C(F)(F)F)cn1)Nc1ncnc2scc(Cl)c12 (centres unmarked)
5. CC(Nc1ncnc2scc(Cl)c12)c1cccnc1Cl (centres unmarked)

["0 to 49%", "80 to 100%", "80 to 100%", "80 to 100%", "80 to 100%"]

Items follow; give pest or weed control at 200 ppm for each.
1. Clc1csc2ncnc(C3Cc4ccccc4C3)c12
2. CC(=O)Nc1ccc(C(C)Nc2ncnc3scc(Cl)c23)cc1 (centres unmarked)
3. COc1ccc(C(C)Nc2ncnc3scc(Cl)c23)cc1 (centres unmarked)
4. CC(Nc1ncnc2scc(Cl)c12)c1ccc(OC(F)(F)F)cc1 (centres unmarked)
5. COc1ncc(C(C)Nc2ncnc3scc(Cl)c23)cn1 (centres unmarked)
6. CC(Nc1ncnc2scc(Cl)c12)c1ccc(Cl)nc1 (centres unmarked)

1. 0 to 49%
2. 80 to 100%
3. 80 to 100%
4. 80 to 100%
5. 80 to 100%
6. 80 to 100%

* * *

Tested on: Colletotricum lagenarium
ASSAY_PROTOCOL: Cucumber Anthracnose (COLLLA), whole-plant fungicide test
Format: in vivo
ASSAY_SETUP: Cucumis sativus, 24 h, 100 ppm (footnote a), one-day protectant test, read-out: COLLLA percent control of disease
Provide the reported pest or weed control at 100 ppm of each item.

Here are 3 compounds together with their reported answers.
[[record]]
compound = "COc1ccc(C(C)Nc2ncnc3scc(F)c23)cc1 (stereo not shown) [Compound 76]"
property_measured = "pest or weed control at 100 ppm"
observed_value = "50 to 79%"

[[record]]
compound = "COc1ccc(C(C)Nc2ncnc3scc(F)c23)cn1 (stereo not shown) [Compound 77]"
property_measured = "pest or weed control at 100 ppm"
observed_value = "50 to 79%"

[[record]]
compound = "CC(Nc1ncnc2scc(Cl)c12)c1ccc(C(C)(C)C)cc1 (stereo not shown) [Compound 91]"
property_measured = "pest or weed control at 100 ppm"
observed_value = "50 to 79%"


Then there is this compound:
Looking up CC(Nc1ncnc2scc(F)c12)c1ccc(OCC(F)(F)F)cc1 (stereo not shown) [Compound 78] , I found its pest or weed control at 100 ppm recorded as 80 to 100%

* * *

Tested on: Puccinia recondita tritici
ASSAY_PROTOCOL: Leaf Rust of Wheat (PUCCRT), whole-plant fungicide test
Format: in vivo
ASSAY_SETUP: Puccinia recondita, foliar, 24 h, 200 ppm on foliage, one-day protectant test, read-out: PUCCRT percent control of disease
I'd be grateful if you could share measured pest or weed control at 200 ppm for these entries.

Solved cases (5 shown):
[[record]]
compound = "Clc1csc2ncnc(N3CCCCC3c3ccccc3)c12 (centres unmarked)"
property_measured = "pest or weed control at 200 ppm"
observed_value = "0 to 49%"

[[record]]
compound = "COc1ncc(C(C)Nc2ncnc3scc(Cl)c23)s1 (centres unmarked)"
property_measured = "pest or weed control at 200 ppm"
observed_value = "80 to 100%"

[[record]]
compound = "CC(Nc1ncnc2scc(Cl)c12)c1cccc2ccccc12 (centres unmarked)"
property_measured = "pest or weed control at 200 ppm"
observed_value = "80 to 100%"

[[record]]
compound = "CC(C)(C)OC(=O)Nc1ccc(CCNc2ncnc3scc(Cl)c23)cc1 [Compound 10a]"
property_measured = "pest or weed control at 200 ppm"
observed_value = "0 to 49%"

[[record]]
compound = "Clc1ccc(CCNc2ncnc3scc(Cl)c23)cn1"
property_measured = "pest or weed control at 200 ppm"
observed_value = "80 to 100%"


// for each compound below, give its pest or weed control at 200 ppm
1. CC(Nc1ncnc2scc(Cl)c12)c1nccs1 (centres unmarked)
2. Clc1csc2ncnc(NC3CCc4ccccc43)c12 (centres unmarked)
3. FC(F)(F)Oc1ccc(COc2ccc(CCNc3ncnc4scc(Cl)c34)cc2)cc1
4. COc1ccc(COCC2CC2C(C)Nc2ncnc3scc(Cl)c23)cc1 (centres unmarked)
5. COc1ccc(C(C)Nc2ncnc3sc(Br)cc23)cc1 (centres unmarked)
6. CC(=O)COc1ccc(CCNc2ncnc3scc(Cl)c23)cc1
7. CCOC(=O)c1csc2ncnc(NC(C)c3ccc(OC)cc3)c12 (centres unmarked)

80 to 100%
50 to 79%
80 to 100%
80 to 100%
0 to 49%
80 to 100%
0 to 49%

* * *

PROPERTY_MEASURED: melting point

[[record]]
molecule = "OCC(Nc1ncnc2scc(Cl)c12)c1ccccc1 (stereo not shown)"
observed_value = "120 °C"


Each of the following entries comes with a recorded value; kindly state melting point for each.
1. O[C@@H](CNc1ncnc2scc(Cl)c12)c1ccccc1
2. OCC(Cc1ccccc1)Nc1ncnc2scc(Cl)c12 (stereo not shown)
3. CCOC(=O)c1sc2ncnc(NC(C)c3ccc(OC)cc3)c2c1O (stereo not shown)

1: 111 to 112 °C; 2: 104 to 105 °C; 3: 151 to 152 °C

* * *

Test system: Erysiphe cichoracaerum
ASSAY_PROTOCOL: Cucumber Powdery Mildew (ERYSCI), whole-plant fungicide test
Assay type: in vivo
ASSAY_SETUP: Erysiphe, foliar, 24 h, 200 ppm on foliage, one-day protectant test, read-out: ERYSCI percent control of disease
PROPERTY_MEASURED: pest or weed control at 200 ppm

Record excerpt, results attached:
[[record]]
compound = "CCC(Nc1ncnc2scc(Cl)c12)c1ccc(OC)nc1 (stereo not drawn) [Compound 79]"
observed_value = "0 to 49%"

[[record]]
compound = "CC(Nc1ncnc2scc(Cl)c12)c1cnc(OCC(F)(F)F)s1 (stereo not drawn) [Compound 90]"
observed_value = "80 to 100%"

[[record]]
compound = "CCOc1ccc(C(C)Nc2ncnc3scc(Cl)c23)cn1 (stereo not drawn) [Compound 39]"
observed_value = "80 to 100%"

[[record]]
compound = "CC(Nc1ncnc2scc(Cl)c12)c1cnco1 (stereo not drawn) [Compound 21]"
observed_value = "50 to 79%"

[[record]]
compound = "CC(Nc1ncnc2scc(Cl)c12)c1ccc(NC=O)cc1 (stereo not drawn) [Compound 58]"
observed_value = "0 to 49%"


Please look at the items below and tell me pest or weed control at 200 ppm for each one, in order.
1. CC(Nc1ncnc2scc(Cl)c12)c1cnccn1 (stereo not drawn) [Compound 23]
2. Clc1csc2ncnc(N3CCCC3c3cccnc3)c12 (stereo not drawn) [Compound 56]
3. COc1ccc(C(C)Nc2ncnc3scc(Cl)c23)cc1 (stereo not drawn) [Compound 27]

1: 80 to 100%; 2: 0 to 49%; 3: 80 to 100%

Could I get pest or weed control at 200 ppm for every one of these entries?
1. CC(Nc1ncnc2scc(Cl)c12)c1ccc(OCCF)nc1 (stereo not drawn) [Compound 75]
2. COc1cc(F)ccc1C(C)Nc1ncnc2scc(Cl)c12 (stereo not drawn) [Compound 83]
3. CC(Nc1ncnc2scc(Br)c12)c1cnc(OCC(F)(F)F)nc1 (stereo not drawn) [Compound 67]
4. COCc1ccc(C(C)Nc2ncnc3scc(Cl)c23)cc1 (stereo not drawn) [Compound 14]
5. Clc1csc2ncnc(C3Cc4ccccc4C3)c12 [Compound 17]
6. CC(Nc1ncnc2scc(Cl)c12)c1ccc(C(F)(F)F)nc1 (stereo not drawn) [Compound 44]
7. CC(COc1ccccn1)Nc1ncnc2scc(Cl)c12 (stereo not drawn) [Compound 37]
8. CC(Nc1ncnc2scc(Cl)c12)c1cccn1C (stereo not drawn) [Compound 13]

1. 80 to 100%
2. 80 to 100%
3. 0 to 49%
4. 80 to 100%
5. 0 to 49%
6. 80 to 100%
7. 80 to 100%
8. 0 to 49%

Please state pest or weed control at 200 ppm for every compound in the list that follows.
1. Clc1csc2ncnc(NC3Cc4ccccc4C3)c12 [Compound 9]
2. Clc1csc2ncnc(N3CCCCC3c3ccccc3)c12 (stereo not drawn) [Compound 93]
3. CC(=O)Nc1ccc(C(C)Nc2ncnc3scc(Cl)c23)cc1 (stereo not drawn) [Compound 59]
4. CC(Nc1ncnc2scc(Cl)c12)c1ccn(C(C)C)c1 (stereo not drawn) [Compound 16]
5. CSc1ccc(C(C)Nc2ncnc3scc(Cl)c23)cc1 (stereo not drawn) [Compound 42]

["80 to 100%", "0 to 49%", "50 to 79%", "0 to 49%", "80 to 100%"]
